Data origin, for the record: paper PMC8307404

- Tested on: HIPK2 (Homo sapiens)
- Sequence (Q9H2X6 whole entry): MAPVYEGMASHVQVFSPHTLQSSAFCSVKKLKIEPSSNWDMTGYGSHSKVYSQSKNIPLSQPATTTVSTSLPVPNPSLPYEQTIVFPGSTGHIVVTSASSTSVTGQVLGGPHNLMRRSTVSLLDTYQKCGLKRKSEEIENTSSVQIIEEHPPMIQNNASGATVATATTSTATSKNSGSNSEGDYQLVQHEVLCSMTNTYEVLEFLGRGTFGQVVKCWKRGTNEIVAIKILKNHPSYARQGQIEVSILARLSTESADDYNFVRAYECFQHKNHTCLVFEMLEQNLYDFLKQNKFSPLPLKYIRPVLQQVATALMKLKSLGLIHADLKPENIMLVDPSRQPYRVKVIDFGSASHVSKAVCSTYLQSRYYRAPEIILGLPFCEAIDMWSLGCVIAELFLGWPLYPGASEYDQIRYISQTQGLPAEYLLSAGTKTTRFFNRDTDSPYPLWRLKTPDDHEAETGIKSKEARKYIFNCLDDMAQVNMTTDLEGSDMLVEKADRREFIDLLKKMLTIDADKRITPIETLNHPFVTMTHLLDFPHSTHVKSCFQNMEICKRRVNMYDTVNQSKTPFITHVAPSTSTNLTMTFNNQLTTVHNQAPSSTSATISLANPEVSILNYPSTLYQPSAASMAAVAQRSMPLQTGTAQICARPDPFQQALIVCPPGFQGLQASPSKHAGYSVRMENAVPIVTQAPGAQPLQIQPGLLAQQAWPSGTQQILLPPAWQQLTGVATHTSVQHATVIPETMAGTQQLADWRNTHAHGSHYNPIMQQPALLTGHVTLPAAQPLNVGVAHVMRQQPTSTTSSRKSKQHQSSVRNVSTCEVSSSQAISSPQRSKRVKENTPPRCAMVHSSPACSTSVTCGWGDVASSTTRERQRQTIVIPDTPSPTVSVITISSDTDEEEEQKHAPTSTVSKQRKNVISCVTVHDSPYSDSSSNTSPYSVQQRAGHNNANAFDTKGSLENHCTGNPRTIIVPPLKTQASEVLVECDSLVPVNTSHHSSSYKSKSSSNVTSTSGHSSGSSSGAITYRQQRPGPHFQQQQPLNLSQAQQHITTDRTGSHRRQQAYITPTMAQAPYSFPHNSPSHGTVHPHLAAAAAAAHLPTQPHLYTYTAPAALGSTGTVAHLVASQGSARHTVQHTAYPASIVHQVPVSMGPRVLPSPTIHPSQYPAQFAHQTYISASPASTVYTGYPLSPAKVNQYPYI
- Experimental details: Kinase profiling (radiometric filter-binding)
- Assay type: biochemical
- Condition notes: HIPK2, 1 µM inhibitor; read-out: Residual activity, %
Assay metric: remaining activity at 1 µM (%)

INSERT INTO measurements (cpd_smiles, measurement_unit, value_measured) VALUES
  ('N=C(N)NCCC[C@@H](NC(=O)CNC(=O)[C@@H](CCCNC(=N)N)NC(=O)[C@@H](CCCNC(=N)N)NC(=O)Cn1cc(CNCc2nc3c(sc4ccc(Br)cc43)c(=O)[nH]2)nn1)C(=O)N[C@H](CCCCN)C(N)=O', '%', 50),
  ('N=C(N)NCCC[C@@H](NC(=O)CCCCCNC(=O)Cn1cnc2c(I)c(I)c(I)c(I)c21)C(=O)N[C@H](CCCNC(=N)N)C(=O)N[C@H](CCCNC(=N)N)C(=O)N[C@H](CCCNC(=N)N)C(=O)N[C@H](CCCNC(=N)N)C(=O)N[C@H](CCCNC(=N)N)C(=O)N[C@H](CCCCN)C(N)=O', '%', 16);
